- Test System: T1, ZFP SBS#1399 (synthetic, UniProt P08047)
- T1 chain: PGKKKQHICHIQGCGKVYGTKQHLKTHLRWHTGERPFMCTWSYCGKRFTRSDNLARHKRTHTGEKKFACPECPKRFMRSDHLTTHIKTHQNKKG
- Method: EMSA
- Condition: tags: MBP fusion
Quantity Measured: pKd
Note on pKd: it is the negative log10 of concentration, concentration in mol/L.

Quick one: pKd of TGGGAGTGT (dsDNA) DNA 1: TGGGAGTGT DNA 2: ACACTCCCA ?
10.00
